molecular target: full length human Shh expressed on the cell surface (human, UniProt Q15465 24-462); assay: cell-based or functional assay

- binder: "3H8 (antibody, V domains shown, fully human XenoMouse hybridoma antibody; also called MAb 3H8) VH: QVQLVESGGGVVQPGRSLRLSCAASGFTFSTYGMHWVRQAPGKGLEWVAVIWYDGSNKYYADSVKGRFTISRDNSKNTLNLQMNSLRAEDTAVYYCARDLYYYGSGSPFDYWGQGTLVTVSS VL: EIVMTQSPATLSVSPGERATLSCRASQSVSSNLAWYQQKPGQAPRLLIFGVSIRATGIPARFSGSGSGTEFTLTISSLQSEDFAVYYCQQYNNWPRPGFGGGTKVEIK"
  % Inh of Gli1 reporter, Co-Culture N = 2 / %: 32
- binder: "1H10 (antibody, V domains shown, fully human XenoMouse hybridoma antibody; tested as hybridoma supernatant and as purified antibody; also called MAb 1H10) VH: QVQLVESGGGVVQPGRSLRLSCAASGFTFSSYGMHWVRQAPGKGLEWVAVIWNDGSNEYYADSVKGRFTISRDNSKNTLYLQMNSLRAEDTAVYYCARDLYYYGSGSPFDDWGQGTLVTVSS VL: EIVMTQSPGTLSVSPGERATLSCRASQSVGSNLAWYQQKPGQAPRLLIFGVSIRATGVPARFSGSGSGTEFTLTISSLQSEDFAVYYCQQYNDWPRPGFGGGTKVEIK"
  % Inh of Gli1 reporter, Co-Culture N = 2 / %: 23
- binder: "6D7 (antibody, V domains shown, fully human XenoMouse hybridoma antibody; also called MAb 6D7) VH: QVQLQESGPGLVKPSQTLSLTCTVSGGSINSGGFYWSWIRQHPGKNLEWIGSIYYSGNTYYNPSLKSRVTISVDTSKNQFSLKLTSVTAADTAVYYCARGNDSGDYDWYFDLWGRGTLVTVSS VL: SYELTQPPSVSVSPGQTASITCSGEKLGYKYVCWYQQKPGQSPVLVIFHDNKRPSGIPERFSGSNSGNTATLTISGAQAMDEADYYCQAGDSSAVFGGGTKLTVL"
  % Inh of Gli1 reporter, Co-Culture N = 2 / %: 22
- binder: "4B6 (antibody, V domains shown, fully human XenoMouse hybridoma antibody; tested as hybridoma supernatant and as purified antibody; also called MAb 4B6) VH: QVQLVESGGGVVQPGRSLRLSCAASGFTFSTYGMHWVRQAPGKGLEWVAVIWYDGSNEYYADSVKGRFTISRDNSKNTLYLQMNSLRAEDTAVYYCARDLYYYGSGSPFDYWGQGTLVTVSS VL: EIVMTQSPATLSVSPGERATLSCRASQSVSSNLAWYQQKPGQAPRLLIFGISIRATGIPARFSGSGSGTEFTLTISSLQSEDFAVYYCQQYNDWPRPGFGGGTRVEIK"
  % Inh of Gli1 reporter, Co-Culture N = 2 / %: 34
- binder: "1H12 (antibody, V domains shown, fully human XenoMouse hybridoma antibody; tested as hybridoma supernatant and as purified antibody; also called MAb 1H12) VH: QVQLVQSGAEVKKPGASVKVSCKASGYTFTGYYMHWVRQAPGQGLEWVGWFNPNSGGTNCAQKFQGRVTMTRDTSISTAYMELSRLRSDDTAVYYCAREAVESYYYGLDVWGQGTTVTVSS VL: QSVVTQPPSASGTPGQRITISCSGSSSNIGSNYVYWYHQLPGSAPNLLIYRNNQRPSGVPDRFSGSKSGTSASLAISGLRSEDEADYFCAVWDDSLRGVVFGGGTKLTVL"
  % Inh of Gli1 reporter, Co-Culture N = 2 / %: 19
